# assay system: Porcine ventricle myofibrils (ventricular myosin ATPase) (Sus scrofa)
# Construct: Myofibrils from porcine cardiac muscle was isolated from the left ventricle of Yucatan minipigs; tissue Exemplar Genetics; host or cells: left ventricle of Yucatan minipigs, myofibrils prepared in house
# Sequence (P79293 whole entry): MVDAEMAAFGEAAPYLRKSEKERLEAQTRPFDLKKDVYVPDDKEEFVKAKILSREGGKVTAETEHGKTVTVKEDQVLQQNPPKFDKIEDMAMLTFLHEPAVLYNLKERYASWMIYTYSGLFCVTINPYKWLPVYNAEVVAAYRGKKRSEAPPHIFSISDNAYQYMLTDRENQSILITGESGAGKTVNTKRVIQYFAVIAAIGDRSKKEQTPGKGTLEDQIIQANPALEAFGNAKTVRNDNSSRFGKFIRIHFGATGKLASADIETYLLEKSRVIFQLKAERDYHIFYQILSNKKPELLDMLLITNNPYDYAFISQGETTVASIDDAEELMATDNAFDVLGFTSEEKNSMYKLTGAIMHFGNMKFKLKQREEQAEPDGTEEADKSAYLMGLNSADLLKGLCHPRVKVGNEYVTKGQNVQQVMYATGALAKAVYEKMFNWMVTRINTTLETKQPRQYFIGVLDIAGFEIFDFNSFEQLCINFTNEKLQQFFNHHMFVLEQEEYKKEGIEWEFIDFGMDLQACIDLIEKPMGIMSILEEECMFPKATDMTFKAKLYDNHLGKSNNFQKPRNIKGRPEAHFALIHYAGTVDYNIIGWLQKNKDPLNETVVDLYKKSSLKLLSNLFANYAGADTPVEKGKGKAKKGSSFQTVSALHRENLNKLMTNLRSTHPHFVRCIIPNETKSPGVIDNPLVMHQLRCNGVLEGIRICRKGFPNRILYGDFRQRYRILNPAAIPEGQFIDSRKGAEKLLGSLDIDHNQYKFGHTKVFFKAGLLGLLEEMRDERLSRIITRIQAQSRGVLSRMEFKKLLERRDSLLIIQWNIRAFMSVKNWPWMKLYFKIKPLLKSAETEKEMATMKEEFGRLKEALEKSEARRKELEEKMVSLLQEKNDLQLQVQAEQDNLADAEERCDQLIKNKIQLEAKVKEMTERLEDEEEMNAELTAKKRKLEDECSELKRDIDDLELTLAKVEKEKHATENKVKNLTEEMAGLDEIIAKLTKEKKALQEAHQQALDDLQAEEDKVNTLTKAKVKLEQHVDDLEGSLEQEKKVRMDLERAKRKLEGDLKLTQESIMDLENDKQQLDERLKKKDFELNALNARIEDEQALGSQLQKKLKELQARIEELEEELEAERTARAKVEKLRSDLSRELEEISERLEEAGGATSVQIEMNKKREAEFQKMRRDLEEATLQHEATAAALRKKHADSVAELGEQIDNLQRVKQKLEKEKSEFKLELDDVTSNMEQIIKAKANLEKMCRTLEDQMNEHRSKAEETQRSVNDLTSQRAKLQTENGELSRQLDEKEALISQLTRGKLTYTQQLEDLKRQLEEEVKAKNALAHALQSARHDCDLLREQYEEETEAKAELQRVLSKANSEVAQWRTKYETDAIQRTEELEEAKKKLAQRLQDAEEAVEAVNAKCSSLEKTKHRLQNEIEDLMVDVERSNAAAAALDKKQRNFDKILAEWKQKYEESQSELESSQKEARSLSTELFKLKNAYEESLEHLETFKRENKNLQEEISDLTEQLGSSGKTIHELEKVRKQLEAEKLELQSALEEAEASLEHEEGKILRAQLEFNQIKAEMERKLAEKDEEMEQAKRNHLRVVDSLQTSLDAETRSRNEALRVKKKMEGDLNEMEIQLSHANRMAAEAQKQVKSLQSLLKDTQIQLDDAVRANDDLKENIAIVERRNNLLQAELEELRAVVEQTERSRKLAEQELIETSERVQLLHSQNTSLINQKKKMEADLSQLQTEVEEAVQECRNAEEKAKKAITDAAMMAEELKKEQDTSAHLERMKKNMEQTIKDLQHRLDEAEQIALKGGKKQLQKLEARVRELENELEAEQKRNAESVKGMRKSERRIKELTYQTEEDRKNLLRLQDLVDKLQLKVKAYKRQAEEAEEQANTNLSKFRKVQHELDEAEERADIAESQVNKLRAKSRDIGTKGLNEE
# assay text: Myofibril ATPase assay, porcine ventricle myofibrils
# Format: biochemical, porcine (Yucatan minipigs)
# stated conditions: Y75 value (no ‡ mark); porcine ventricle myofibrils
metric name: Ventricular EC25
Express the reported value numerically, then name its unit.

What does the data say about its Ventricular EC25? Entry: Cc1c(F)ccc2[nH]c(=O)c(C(F)(F)C(=O)N[C@H](C)c3ncc(C#N)cn3)c(C)c12 (single isomer, unassigned) 390 nM

What does the data say about its Ventricular EC25? Entry: O=C(Cc1cc2c(F)c(F)ccc2[nH]c1=O)N[C@H]1COc2ncccc21 (single isomer, unassigned) 100000 nM

What does the data say about its Ventricular EC25? Entry: C[C@H](NC(=O)[C@@H](C)c1c(C(F)(F)F)c2cc(F)ccc2[nH]c1=O)c1ccc(F)cc1F (single isomer, unassigned) [compound 99] 100000 nM

What does the data say about its Ventricular EC25? Entry: Cc1c(CC(=O)N[C@@H](C)c2ccc(F)cn2)c(=O)[nH]c2cccc(F)c12 1970 nM

What does the data say about its Ventricular EC25? Entry: Cc1nc(C#N)cnc1[C@@H](C)NC(=O)Cc1c(C)c2c(F)c(F)ccc2[nH]c1=O 140 nM

----------
# System: Rabbit Psoas myofibrils (skeletal myosin ATPase)
# assay text: Myofibril ATPase assay, rabbit psoas (skeletal) myofibrils
# Assay type: biochemical
# stated conditions: rabbit psoas myofibrils; Y75 value
Field 'label' (enum: 1 / 0). Set to 1 when Skeletal EC25 is strictly under 5 µM; else 0.

Please review the entries below; each comes with its answer.
Cc1nc(C#N)cnc1[C@H](C)NC(=O)C(F)(F)c1c(C)c2c(C)nccc2[nH]c1=O (single isomer, unassigned) [compound 3505] = 1
COc1ccccc1[C@@H](C)NC(=O)Cc1c(C)c2c(C)nccc2[nH]c1=O (single isomer, unassigned) [compound 318] = 0
Cc1c(CC(=O)N[C@@H](CO)c2ccc(F)cc2F)c(=O)[nH]c2ccc(C#N)nc12 [compound 211] = 0
Cc1c(CC(=O)N[C@H](CO)c2ccc(C#N)cc2F)c(=O)[nH]c2ccnc(OC3CC3)c12 [compound 203] = 1
C[C@@H](NC(=O)Cc1c(C(F)(F)F)c2c(C3CC3)nccc2[nH]c1=O)c1ncc(C#N)cn1 (single isomer, unassigned) [compound 3001] = 1
Cc1cnncc1[C@@H](C)NC(=O)Cc1c(C)c2c(C)nccc2[nH]c1=O [compound 480] = 0

Field: next compound
Does Cc1c(CC(=O)N[C@H](C)c2ccc(F)cc2F)c(=O)[nH]c2ccnc(C(F)(F)F)c12 [compound 270] have Skeletal EC25 strictly under 5 µM? 0

----------
# assay system: Porcine ventricle myofibrils (ventricular myosin ATPase) (Sus scrofa)
# Construct: Myofibrils from porcine cardiac muscle was isolated from the left ventricle of Yucatan minipigs; tissue Exemplar Genetics; host or cells: left ventricle of Yucatan minipigs, myofibrils prepared in house
# assay text: Myofibril ATPase assay, porcine ventricle myofibrils
# Format: biochemical, porcine (Yucatan minipigs)
# stated conditions: Y75 value (no ‡ mark); porcine ventricle myofibrils
metric name: Ventricular EC25 (µM)
The reply should contain only the number, in µM.

Some solved entries appear below for comparison.
Cc1nc(C#N)ccc1[C@H](C)NC(=O)Cc1c(C)c2c(C)c(F)ccc2[nH]c1=O (single isomer, unassigned) = 0.07
Cc1c(C2(C(=O)N[C@H]3CCc4cc(C#N)cnc43)CC2)c(=O)[nH]c2ccc(F)c(F)c12 (single isomer, unassigned) = 100.00
Cc1nnccc1C(C)NC(=O)Cc1cc2cc(F)c(F)cc2[nH]c1=O (stereo not shown) = 100.00

Note: attention shifts to another entry.
What does the data say about its Ventricular EC25? Entry: Cc1c(CC(=O)N[C@H](C)c2ccc(C#N)cn2)c(=O)[nH]c2ccc(F)c(C#N)c12 0.68
